- experimental-system: T1, CD71 apical domain (human, UniProt P02786 189-383, limits assumed)
- T1 construct: domain: apical domain
- T1 sequence (P02786 189-383 limits assumed): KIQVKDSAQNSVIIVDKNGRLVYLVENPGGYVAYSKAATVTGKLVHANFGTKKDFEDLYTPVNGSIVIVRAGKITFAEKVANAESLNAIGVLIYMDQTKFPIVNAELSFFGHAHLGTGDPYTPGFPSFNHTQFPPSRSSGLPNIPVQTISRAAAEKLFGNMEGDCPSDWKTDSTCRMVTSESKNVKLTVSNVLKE
- test-method-notes: solution ELISA screen, signal ratio to HSA control
Reported apical domain:HSA values for a set of binders
assay-endpoint: apical domain:HSA (ratio)

binder	assay-endpoint	endpoint-value
SEQ ID NO 266 (designed binder, not shown: small tags and cut ends) MLPAPKNLVVSRVTEDSARLSWTAPDAAFDSFYIAYAEPRPDGEAIRLQVPGSERSYDLTGLKPGTEYSVLIHGVKGGLLSSPLGASFTT	apical domain:HSA	117
SEQ ID NO 251 (designed binder, not shown: small tags and cut ends) MLPAPKNLVVSRVTEDSARLSWTAPDAAFDSFFIGYLEPQPPGEAIGLWVPGSERSYDLTGLKPGTEYNVTIQGVKGGFPSDPLQAVFTT	apical domain:HSA	220
SEQ ID NO 248 (designed binder, not shown: small tags and cut ends) MLPAPKNLVVSRVTEDSARLSWTAPDAAFDSFYIAYAEPRPDGEAIWLGVPGSERSYDLTGLKPGTEYSVLIHGVKGGLLSSPLHATFTT	apical domain:HSA	160
SEQ ID NO 263 (designed binder, not shown: small tags and cut ends) MLPAPKNLVVSRVTEDSARLSWTAPDAAFDSFYIAYAEPRPDGEAIALVVPGSERSYDLTGLKPGTEYSVLIHGVKGGLLSSPLAANFTT	apical domain:HSA	184
